Reference source for all entries: patent US8048879B2

- Test system: batrachotoxin (BTX) binding site of the sodium channel
- test_protocol: Affinity for the batrachotoxin (BTX) binding site of the sodium channel, [3H]-batrachotoxinin A20 α-benzoate, rat cerebrocortex synaptosomes
- test_conditions: test concentration not given
Please enter fulfilled where BTX inhibition (rat) % inhibition is greater than or equal to 40%, and not fulfilled where it is lower.

>>> label_value("O=C(c1noc2c1CN(S(=O)(=O)c1cccc(C(F)(F)F)c1)CC2)N(CCc1ccccc1)Cc1ccccc1")
"fulfilled"
>>> label_value("Cc1cc(C)c(S(=O)(=O)N2CCc3onc(C(=O)N4CCC(CCN5CCCC5)CC4)c3C2)c(C)c1")
"fulfilled"
>>> label_value("O=C(NCc1ccc(C(F)(F)F)c(F)c1)c1noc2c1CN(S(=O)(=O)c1ccccc1)CC2")
"fulfilled"
>>> label_value("COCCNC(=O)c1noc2c1CN(C(=O)c1ccc(C(F)(F)F)c(F)c1)CC2")
"not fulfilled"
>>> label_value("O=C(c1noc2c1CN(S(=O)(=O)c1ccc(F)cc1)CC2)N1CCN(c2ncnc3sccc23)CC1")
"fulfilled"
>>> label_value("O=C(NC1CCCC1)c1noc2c1CN(C(=O)COc1ccc(Cl)cc1)CC2")
"fulfilled"
>>> label_value("O=C(c1noc2c1CN(S(=O)(=O)c1ccc3ccccc3c1)CC2)N1CCC(CCN2CCCC2)CC1")
"fulfilled"
>>> label_value("Cc1ccc(NC(=O)N2CCc3onc(C(=O)NCc4ccc(F)cc4)c3C2)cc1[N+](=O)[O-]")
"fulfilled"
>>> label_value("COc1ccc(NC(=O)N2CCc3onc(C(=O)NCc4ccc(S(N)(=O)=O)cc4)c3C2)cc1")
"not fulfilled"
